# Test System: Human P2Y12 receptor (Homo sapiens)
# Construct: expressed in transfected cells; host or cells: HEK cells
# Sequence (Q9H244 whole entry): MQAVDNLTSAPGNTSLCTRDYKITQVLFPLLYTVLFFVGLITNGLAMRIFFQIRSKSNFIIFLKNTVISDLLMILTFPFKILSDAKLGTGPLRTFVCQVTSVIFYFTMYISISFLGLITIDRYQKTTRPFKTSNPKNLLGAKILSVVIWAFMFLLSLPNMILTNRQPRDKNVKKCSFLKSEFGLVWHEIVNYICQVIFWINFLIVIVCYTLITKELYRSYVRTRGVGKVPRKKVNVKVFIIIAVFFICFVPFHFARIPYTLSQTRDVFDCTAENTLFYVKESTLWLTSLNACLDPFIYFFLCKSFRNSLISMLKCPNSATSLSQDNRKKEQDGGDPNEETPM
# Method Summary: Human P2Y12 receptor cell membrane binding assay with [3H] 2-Mes-ADP
# Experimental Conditions: 30 μM compound; 1 nM [3H] 2-Mes-ADP
Result Type: inhibition at 30 µM (%)

Worked cases, answers included:
{"columns": ["Molecule", "Units Symbol", "inhibition at 30 µM"],
 "data": [
  ["CCc1cc2c(N3CCn4cnnc4C3)nc(OCC(O)CO)nc2s1 (centres unmarked)", "%", 39.3],
  ["CCc1cc2c(N3CCc4c([nH]n(C)c4=O)C3)nc(N3CCNC(=O)C3)nc2s1", "%", 23.6],
  ["CCc1cc2c(N3CCc4c([nH]n(C)c4=O)C3)nc(OCC(O)CO)nc2s1 (centres unmarked)", "%", 26.4]
]}

A: CCCc1cc2c(N3CCn4c(nnc4C(F)(F)F)C3)nc(Sc3ccccc3)nc2s1
B: CCc1cc2c(N3CCc4[nH]ncc4C3)nc(OCC(O)CO)nc2s1 (centres unmarked)
Hello, I am sorting some records. Could you say if A or B has the smaller inhibition at 30 µM value? Reply briefly: the label of your chosen item. A

---

# Test System: Human P2Y12 receptor (Homo sapiens)
# Construct: expressed in transfected cells; host or cells: HEK cells
# Method Summary: Human P2Y12 receptor cell membrane binding assay with [3H] 2-Mes-ADP
# Experimental Conditions: 1 nM [3H] 2-Mes-ADP, membranes of HEK cells expressing P2Y12 receptor; read-out: Binding activity (IC50)
Each entry below carries its recorded IC50.
Please respond with the number in nM and leave the unit unwritten.

Worked cases, answers included:
{"columns": ["Compound", "Assay Value"],
 "data": [
  ["CCCc1cc2c(N3CCn4c(nnc4C(F)(F)F)C3)nc(N3CC(O)C3)nc2s1", 96],
  ["CCCc1cc2c(N3CCn4c(nnc4C(F)(F)F)C3)nc(C(=O)NCC(=O)O)nc2s1", 1100],
  ["CCCc1cc2c(N3CCn4c(nnc4C(F)(F)F)C3)nc(CC(=O)O)nc2s1", 370],
  ["CCCc1cc2c(N3CCn4c(nnc4C(F)(F)F)C3)nc(Nc3nc(C(=O)OCC)cs3)nc2s1", 1930]
]}

Name the reported IC50 value associated with the compound CC(C)c1cc2c(N3CCn4c(nnc4C(F)(F)F)C3)nc(N3CCNC(=O)C3)nc2s1 460

Name the reported IC50 value associated with the compound CCCc1cc2c(N3CCn4c(nnc4C(F)(F)F)C3)nc(N3CC[C@H](NC(=O)CC(F)(F)F)C3)nc2s1 80

Name the reported IC50 value associated with the compound CCCc1cc2c(N3CCn4c(nnc4C(F)(F)F)C3)nc(N3CCC(O)CC3)nc2s1 60

Name the reported IC50 value associated with the compound CCCc1cc2c(N3CCn4c(nnc4C(F)(F)F)C3)nc(N3CCC(C(=O)NS(=O)(=O)Cc4ccccc4)CC3)nc2s1 100

Name the reported IC50 value associated with the compound CCCc1cc2c(N3CCn4c(nnc4C(F)(F)F)C3)nc(OCc3ccccn3)nc2s1 370

Name the reported IC50 value associated with the compound CCCc1cc2c(N3CCn4c(nnc4C(F)(F)F)C3)nc(N3CCCC(CO)C3)nc2s1 (stereo not shown) 50

Name the reported IC50 value associated with the compound CCCc1cc2c(N3CCn4c(nnc4C(F)(F)F)C3)nc(N3CC[C@@H](OC(C)=O)C3)nc2s1 90

Name the reported IC50 value associated with the compound CCCc1cc2c(N3CCn4c(nnc4C(F)(F)F)C3)nc(N3CC[C@@H](O)C3)nc2s1 41

Name the reported IC50 value associated with the compound CCCc1cc2c(N3CCn4c(nnc4C(F)(F)F)C3)nc(N3CCN(C)CC3)nc2s1 92

Name the reported IC50 value associated with the compound CCCc1cc2c(N3CCn4c(nnc4C(F)(F)F)C3)nc(C3=N[C@H](CC(=O)O)CS3)nc2s1 33

Name the reported IC50 value associated with the compound CCCc1cc2c(N3CCn4c(nnc4C(F)(F)F)C3)nc(N3CCC(N)CC3)nc2s1 82

Name the reported IC50 value associated with the compound CCCc1nc2c(N3CCn4c(nnc4C(F)(F)F)C3)nc(N3CC[C@H](N)C3)nc2s1 170
